src = patent US20040121316A1

biological target: 84V90M HIV protease (Human immunodeficiency virus type 1 group M subtype B, UniProt P04585, I572V/L578M); assay: biochemical; design: species or system HIV-1; details: read-out: 84V90M IC50/nM; Enzymatic assay, 84V90M
experimentalEndpoint: IC50 (nM)
Reply with just the number (in nM).

q: // returns reported IC50 for input CCOP(=O)(CCCNC(=O)c1cccc(CN2C(=O)N(Cc3ccc4[nH]nc(N)c4c3)C(Cc3ccccc3)C(O)C(O)C2Cc2ccccc2)c1)OCC (stereo not shown) [drawing 820]
a: 10

====

target: recombinant HIV-1 protease (Human immunodeficiency virus type 1 group M subtype B); construct: Enzyme: recombinant HIV-1 protease expressed in E.Coli; purchased Bachem California, Inc. H-9040; host or cells: E. coli; assay: biochemical

{"compound": "COc1ccc(S(=O)(=O)N(CC(C)C)C[C@@H](O)[C@H](Cc2ccc(OCP(=O)(Oc3ccccc3)Oc3ccccc3)cc2)NC(=O)OC2CCOC2)cc1 (stereo partly shown) [OMe, phenol]", "Ki (pM)": "+ + +"}
{"compound": "COc1ccc(S(=O)(=O)N(CC(C)C)CC(O)C(CC2=CCN(CP(=O)(O)OC(C)C(=O)O)CC2)NC(=O)OC2COC3OCCC23)cc1 (stereo not shown)", "Ki (pM)": "+ + +"}
{"compound": "COc1ccc(S(=O)(=O)N(CC(C)C)CC(O)C(CN(C)Cc2ccc(P(=O)(O)OC(C)C(=O)O)cc2)NC(=O)OC2COC3OCCC23)cc1 (stereo not shown)", "Ki (pM)": "+ +"}
{"compound": "CCCCOC(=O)C(C)OP(=O)(COc1ccc(CC(NC(=O)OC2COC3OCCC23)C(O)CN(CC(C)C)S(=O)(=O)c2cccc(N)c2)cc1)Oc1ccccc1 (stereo not shown) [drawing 720]", "Ki (pM)": "+ +"}
